Test system: HOP-92 NSCLC
Assay: NCI tumour cell line growth inhibition, 48 h
quantity-measured: TGI (µM)
Numbers only; they are read as µM.

In plain terms, O=C1c2ccoc2C(=O)c2oc(=O)ccc21 has a documented TGI of 39.8

In plain terms, O=C(CN(/C=C/C(=O)C(F)(F)F)c1ccccc1)c1ccc(F)cc1 has a documented TGI of 90.4

In plain terms, COc1cc2c3c(n(CCCN4CCSCC4)c(=O)c2cc1OC)-c1cc2c(cc1C3=O)OCO2 has a documented TGI of 46.3

In plain terms, CCN(CC)Cc1ccc(Nc2c3ccccc3nc3ccccc23)cc1 has a documented TGI of 11.9
